# zone of inhibition at 0.1 µg/disc annotations
System: Penicillium oxalicum
test.method.notes: Antimicrobial activity against Penicillium oxalicum at 0.1 ug
Assay type: functional
condition.summary: read-out: IZ
readout.name: zone of inhibition at 0.1 µg/disc

>>> value_measured("CCC[C@@H](OC(C)=O)C1=C(Br)C(=C(Br)Br)OC1=O")
"6 mm"
>>> value_measured("CCC[C@@H](OC(C)=O)C1=C(Br)/C(=C/Br)OC1=O")
"7 mm"
>>> value_measured("CCC[C@@H](O)C1=C(Br)/C(=C/Cl)OC1=O")
"6 mm"
>>> value_measured("CCC[C@@H](O)C1=C(Br)/C(=C/Br)OC1=O")
"6 mm"
>>> value_measured("CCC[C@@H](OC(C)=O)C1=C(Br)/C(=C/I)OC1=O")
"6 mm"
>>> value_measured("CCC[C@@H](O)C1=C(Br)/C(=C\\Br)OC1=O [HYDROXYFIMBROLIDE]")
"6 mm"
